- subject-of-test: T1, ErbB2&ErbB3 co-expressed on COS7 cells (UniProt P04626 23-1255; P21860 20-1342, limits assumed)
- T1 construct: whole, on cells; Both receptors are co-expressed on the same cells, and the numbers are for these cells, not for a single receptor; also called COS7 cells (ErbB2&ErbB3 co-expression)
- method: receptor binding affinity assay on COS7 cells co-expressing ErbB2&ErbB3
recorded-metric: Kd (nM)
Just the number please, in nM, no unit attached.

{"binder": "neuregulin variant L3A (ligand) SHAVKCAEKEKTFCVNGGECFMVKDLSNPSRYLCKCPNEFTGDRCQNYVMASFYKAEELYQ", "recorded-metric": "Kd", "experimental-result": 1.15}

Answer with the recorded Kd for the binder listed here: neuregulin (the 177-237 amino acids fragment of neuregulin1 β2) (ligand, also called NRG; NRG-1β) SHLVKCAEKEKTFCVNGGECFMVKDLSNPSRYLCKCPNEFTGDRCQNYVMASFYKAEELYQ
1.41

All values here come from patent US20090203595A1.
